Data provenance is PubChem BioAssay AID1347076.

# experimentalProtocol: qHTS assay for MDR1-selective chemotherapeutics: Primary screen using the drug-selected MDR subline cells KB-V1; also: nearly all actives have a fitted effect of over 60% in size; also: potency is read from the fitted curve at half-maximal effect
# assaySetup: KB-V1 MDR cells viability, CellTiter-Glo, 72 h; series mostly up to 46.1 µM
Screen size: about 400,000 compounds; about 13,000 (3.2%) were called active. About 18% were inconclusive and are not listed. The list comes from a sample in which actives are over-represented; it also holds close analogues and randomly drawn compounds.
observedProperty: Potency

Solved entries:
[
  {
    "compound": "N=c1n(Cc2ccc(Cl)cc2)c2ccccc2n1CC(O)c1ccco1 (stereo unspecified)",
    "observedProperty": "Potency",
    "obsValue": "20.6 µM (active)"
  },
  {
    "compound": "COc1ccc(CCNC(=O)c2cn(C)c3ccc(S(=O)(=O)N(C)C4CCCCC4)cc3c2=O)cc1OC",
    "observedProperty": "Potency",
    "obsValue": "inactive"
  },
  {
    "compound": "COc1ccc(-c2c(C#N)cnc(C)c2C)c(O)c1OC",
    "observedProperty": "Potency",
    "obsValue": "inactive"
  },
  {
    "compound": "Cn1c(=N)n(CC(O)c2cccs2)c2ccccc21 (stereo unspecified)",
    "observedProperty": "Potency",
    "obsValue": "inactive"
  },
  {
    "compound": "CN(c1ccccc1)c1nc(N)c([N+](=O)[O-])c(NCc2ccco2)n1",
    "observedProperty": "Potency",
    "obsValue": "20.6 µM (active)"
  },
  {
    "compound": "C=CCn1c2c(c3ccccc31)CCC2",
    "observedProperty": "Potency",
    "obsValue": "inactive"
  }
]

input: Reported Potency for "COCCNc1nc(N)c([N+](=O)[O-])c(NCCO)n1" : what is it?
output: inactive

input: Quick check: Potency of CCOC(=O)c1cccc(NC(=O)C(Cc2ccccc2)NS(=O)(=O)c2cccc3nsnc23)c1 (stereo unspecified) ?
output: inactive

input: Any idea what Potency was measured for "Cc1ccc(NC(=O)COC(=O)CN2CCSC2=O)cc1F" ?
output: inactive

input: Reported Potency for COc1ccc(C(=O)NCC2CCCO2)cc1S(=O)(=O)NCc1ccc(Cl)cc1 (stereo unspecified) : what is it?
output: inactive

input: Quick one: Potency of O=C1c2ccccc2C(c2nc3ccccc3[nH]2)N1c1ccccc1 (stereo unspecified) ?
output: inactive

---

# experimentalProtocol: qHTS assay for MDR1-selective chemotherapeutics: Primary screen using the drug-selected MDR subline cells KB-V1; also: nearly all actives have a fitted effect of over 60% in size
# assaySetup: KB-V1 MDR cells viability, CellTiter-Glo, 72 h; series mostly up to 46.1 µM
Out of some 400,000 compounds screened, about 13,000 (3.2%) were called active. Roughly 18% stayed inconclusive and do not appear here. The call rests on the fitted dose curve; in most records, active means well fitted cell-killing curve with a large enough effect; inconclusive means small, poorly fitted or top-dose-only effect, or effect the other way; inactive means flat fitted curve, though single readings scatter. The full list was thinned out, with actives kept by preference.
Would you mind answering with one of these outcomes? active, inactive

Examples with answers:
[
  {
    "chemicalStructure": "CCn1c(CNc2ccc(OC)cc2)nnc1SCC(=O)c1ccc(OC)cc1",
    "assignedCategory": "inactive"
  },
  {
    "chemicalStructure": "CCc1nnc(NC(=O)CSc2nnc(Cc3ccccc3)n2-c2ccc(OC)cc2)s1",
    "assignedCategory": "inactive"
  },
  {
    "chemicalStructure": "CN(C)c1ccc(/C=C2\\C=Cc3ccccc32)cc1Br",
    "assignedCategory": "inactive"
  },
  {
    "chemicalStructure": "CC1(C)CC(=O)C=C(c2ccc(COC(=O)c3cc(F)cc(F)c3)cc2)C1=O",
    "assignedCategory": "inactive"
  }
]

--- query ---
input: State the result this test recorded for "COc1ccc(NCc2nnc(SCc3ccccc3)n2-c2ccc(OC)cc2)cc1" .
output: active

---

# experimentalProtocol: qHTS assay for MDR1-selective chemotherapeutics: Primary screen using the drug-selected MDR subline cells KB-V1; also: nearly all actives have a fitted effect of over 60% in size
# assaySetup: KB-V1 MDR cells viability, CellTiter-Glo, 72 h; series mostly up to 46.1 µM
Among all 400,000 compounds or so, about 13,000 (3.2%) were called active. About 18% were inconclusive and are not listed. Calls come from the whole dose curve; as a rule, active = well fitted cell-killing curve with a large enough effect; inconclusive = small, poorly fitted or top-dose-only effect, or effect the other way; inactive = flat fitted curve, though single readings scatter. The list comes from a sample in which actives are over-represented; it also holds close analogues and randomly drawn compounds.
// classify into active, inactive

As a guide, the following entries are already answered.
[
  {
    "chemicalStructure": "CCc1nc2ccc(C(=O)NCCNC(C)=O)cn2c1N(CC)Cc1cccc(Br)c1",
    "assignedCategory": "inactive"
  },
  {
    "chemicalStructure": "COc1cc(S(=O)(=O)N2CCN=C2c2ccccc2)ccc1Cl",
    "assignedCategory": "active"
  },
  {
    "chemicalStructure": "CCc1nc2ccc(C(=O)NCc3ccc(OC)cc3)cn2c1N(CC)Cc1cccc(Br)c1",
    "assignedCategory": "inactive"
  },
  {
    "chemicalStructure": "O=C(c1ccc(S(=O)(=O)c2ccccc2)cc1)N1CCCCCC1",
    "assignedCategory": "inactive"
  },
  {
    "chemicalStructure": "N#Cc1ccccc1-n1c(N)c(C(=O)N2CCCC2)sc1=S",
    "assignedCategory": "active"
  }
]

input: What did the test return for "CCOc1ccc(S(=O)(=O)N2CCN=C2Cc2ccccc2)cc1C" ?
output: inactive

input: Please let me know the test result on file for "COCCNc1ncnc2c1ncn2[C@H]1CN(CCN2CCOCC2)C[C@@H](CO)O1" .
output: inactive

---

# experimentalProtocol: qHTS assay for MDR1-selective chemotherapeutics: Primary screen using the drug-selected MDR subline cells KB-V1; also: nearly all actives have a fitted effect of over 60% in size
# assaySetup: KB-V1 MDR cells viability, CellTiter-Glo, 72 h; series mostly up to 46.1 µM
Hit rate of the full screen: of about 400,000 compounds, about 13,000 (3.2%) were called active. Another 18% or so got no clear call; they are omitted. The call rests on the fitted dose curve; in most records, active means well fitted cell-killing curve with a large enough effect; inconclusive means small, poorly fitted or top-dose-only effect, or effect the other way; inactive means flat fitted curve, though single readings scatter. Many of the other results were omitted from the sample, so actives are more common in it than they were.
Reply using exactly one outcome from YES for active, NO for inactive

[
  {
    "compound": "CCN1CC(CN(C)Cc2nc(-c3ccc(Cl)cc3)no2)CC1=O (stereo not drawn)",
    "assignedCategory": "YES"
  },
  {
    "compound": "Cc1ccc(C(=O)N2c3ncnn3C3(CCCCC3)[C@@H]3CCCC[C@@H]32)cc1",
    "assignedCategory": "NO"
  },
  {
    "compound": "Cc1nc(Cl)cc(N/N=C/c2ccccc2)n1",
    "assignedCategory": "NO"
  },
  {
    "compound": "CC(Oc1ccc(Br)cc1)C(=O)NCC(c1ccco1)N1CCCCC1 (stereo not drawn)",
    "assignedCategory": "YES"
  },
  {
    "compound": "Cn1c(=O)[nH]c(=O)c2c1nc(CN(Cc1ccccc1)Cc1ccccc1)n2CCN1CCOCC1",
    "assignedCategory": "YES"
  },
  {
    "compound": "COc1cc(C(=O)Nc2ccc(OCc3cc(=O)n4cc(C)sc4n3)cc2)cc(OC)c1OC",
    "assignedCategory": "NO"
  }
]

input: Any idea what this test logged for "Cc1c(C(=O)NC2CCCCC2)oc2ccccc12" ?
output: NO

input: Which outcome was entered for the compound "CC(C)c1cc(C(=O)NC2CCCCCC2)c2ccccc2n1" in this test?
output: NO

input: Dear all, I need the recorded test outcome for "COc1ccc(CC(=O)Nc2ccc(-c3nc4ccccc4s3)c(C)c2)cc1" , thank you.
output: NO

input: Kindly provide the recorded test outcome for the following compound: "COc1cc(C(=O)OCCCN2CCOCC2)cc(OC)c1OC"
output: NO

input: GET /call?item= "Cc1cc2c(C)nc(N/N=C/c3ccccc3)nc2o1" returns the recorded outcome of this test.
output: YES

---

# experimentalProtocol: qHTS assay for MDR1-selective chemotherapeutics: Primary screen using the drug-selected MDR subline cells KB-V1; also: nearly all actives have a fitted effect of over 60% in size
# assaySetup: KB-V1 MDR cells viability, CellTiter-Glo, 72 h; series mostly up to 46.1 µM
About 13,000 (3.2%) of roughly 400,000 compounds were called active. Not shown: some 18% with an inconclusive outcome. Calls come from the whole dose curve; as a rule, active = well fitted cell-killing curve with a large enough effect; inconclusive = small, poorly fitted or top-dose-only effect, or effect the other way; inactive = flat fitted curve, though single readings scatter. Shown is part of a subset that was picked to be rich in actives.
Outcome field: choose from active, inactive

[
  {
    "compound": "CN1CCN(c2oc(-c3ccc(COc4ccc(Cl)cc4)o3)nc2C#N)CC1",
    "assignedCategory": "inactive"
  }
]

input: Would you mind telling me which call this test gave "CN(CC(=O)Nc1ccccc1F)S(=O)(=O)c1ccc2c(c1)c(=O)n(C)c(=O)n2C" ?
output: inactive

input: Recorded test call requested for "CN(C)c1ccc(/C=C/c2c3ccccc3nc3ccccc23)cc1"
output: inactive

input: Which outcome did this test record for the compound "C=CCOC(=O)c1ccccc1C(=O)OCC=C" ?
output: inactive

input: Status in this test for "NC(=O)Nc1ccc(/C=C/c2ccnc3ccccc23)cc1" ?
output: inactive

input: What is the recorded call for this compound in the test? "C=CCOC(=O)C1=C(C)NC(C)=C(C(=O)OCC=C)C1c1cccs1"
output: active

input: Just curious, what result did "COc1ccc(Cn2c(=O)oc3ccccc32)cc1" get here?
output: inactive
